# key: entry, value: EC50
Molecular target: T1, human CD39 (full length, on cells) (human, UniProt P49961 1-510)
T1 construct: Recombinant on CHOK1-hCD39 cells or natural on SK-MEL-28, SK-MEL-5 and MOLP-8 cells; the cell line is named under assay; also called hCD39; ENTPD1
T1 sequence: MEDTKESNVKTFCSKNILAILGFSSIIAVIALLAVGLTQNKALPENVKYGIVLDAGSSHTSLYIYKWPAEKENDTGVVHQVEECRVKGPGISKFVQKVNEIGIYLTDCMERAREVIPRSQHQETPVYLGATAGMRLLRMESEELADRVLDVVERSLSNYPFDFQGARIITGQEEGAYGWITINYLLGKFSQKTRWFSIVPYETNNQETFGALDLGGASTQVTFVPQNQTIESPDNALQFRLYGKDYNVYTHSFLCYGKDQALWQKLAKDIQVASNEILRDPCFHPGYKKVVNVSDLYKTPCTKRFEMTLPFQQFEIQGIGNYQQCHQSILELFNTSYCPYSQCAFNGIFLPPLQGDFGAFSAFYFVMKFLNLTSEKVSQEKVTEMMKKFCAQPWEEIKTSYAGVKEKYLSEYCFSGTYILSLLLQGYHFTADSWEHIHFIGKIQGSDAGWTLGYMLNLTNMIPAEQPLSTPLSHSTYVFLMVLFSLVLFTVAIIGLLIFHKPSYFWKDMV
Experiment: FACS, MOLP-8 cells
Quick note: give the figure in nM, leave out the unit.

[
  {
    "binder": "hu23.H1L4 (antibody, V domains shown, humanized c23) VH: QVQLVQSGAEVKKPGASVKVSCKASGYNLKDTFLHWVRQAPGQRLEWMGRIDPANGNIKYDPKFQGRVTITRDTSASTAYMELSSLRSEDTAVYYCARSPYYYGSGYRIFDVWGQGTTVTVSS VL: EIVLTQSPATLSASPGERVTISCSAFSSVNYMHWYQQKPGQAPRLLIYTTSNLASGIPARFSGSGSGTDYTLTISSMEPEDFAVYYCQQRSTYPFTFGQGTKLEIK",
    "observed value": 1.5
  },
  {
    "binder": "hu23.H2L1 (antibody, V domains shown, humanized c23) VH: QVQLVQSGAEVKKPGASVKVSCKASGYNLKDTFLHWVRQAPGQGLEWMGRIDPANGNIKYDPKFQGRVTITADTSASTAYMELSSLRSEDTAVYYCANSPYYYGSGYRIFDVWGQGTTVTVSS VL: EIVLTQSPATLSLSPGERATLSCSAFSSVNYMHWYQQKPGQAPRLLIYTTSNLASGIPARFSGSGSGTDFTLTISSLEPEDFAVYYCQQRSTYPFTFGQGTKLEIK",
    "observed value": 65.9
  }
]

Consider the additional binder presented here.
Which EC50 is reported for this binder? hu23.H2L4 (antibody, V domains shown, humanized c23) VH: QVQLVQSGAEVKKPGASVKVSCKASGYNLKDTFLHWVRQAPGQGLEWMGRIDPANGNIKYDPKFQGRVTITADTSASTAYMELSSLRSEDTAVYYCANSPYYYGSGYRIFDVWGQGTTVTVSS VL: EIVLTQSPATLSASPGERVTISCSAFSSVNYMHWYQQKPGQAPRLLIYTTSNLASGIPARFSGSGSGTDYTLTISSMEPEDFAVYYCQQRSTYPFTFGQGTKLEIK
1.46
